target: N-type calcium channel (Homo sapiens); assay: Automated Electrophysiology Assay (QPatch-HT whole-cell patch clamp; low- and high-frequency stimulation); assay type: cell-based; details: 0.25 μM; high-frequency stimulation (15th pulse); read-out: QPatch at High Frequency % Inhibition
Sequence (Q00975 whole entry): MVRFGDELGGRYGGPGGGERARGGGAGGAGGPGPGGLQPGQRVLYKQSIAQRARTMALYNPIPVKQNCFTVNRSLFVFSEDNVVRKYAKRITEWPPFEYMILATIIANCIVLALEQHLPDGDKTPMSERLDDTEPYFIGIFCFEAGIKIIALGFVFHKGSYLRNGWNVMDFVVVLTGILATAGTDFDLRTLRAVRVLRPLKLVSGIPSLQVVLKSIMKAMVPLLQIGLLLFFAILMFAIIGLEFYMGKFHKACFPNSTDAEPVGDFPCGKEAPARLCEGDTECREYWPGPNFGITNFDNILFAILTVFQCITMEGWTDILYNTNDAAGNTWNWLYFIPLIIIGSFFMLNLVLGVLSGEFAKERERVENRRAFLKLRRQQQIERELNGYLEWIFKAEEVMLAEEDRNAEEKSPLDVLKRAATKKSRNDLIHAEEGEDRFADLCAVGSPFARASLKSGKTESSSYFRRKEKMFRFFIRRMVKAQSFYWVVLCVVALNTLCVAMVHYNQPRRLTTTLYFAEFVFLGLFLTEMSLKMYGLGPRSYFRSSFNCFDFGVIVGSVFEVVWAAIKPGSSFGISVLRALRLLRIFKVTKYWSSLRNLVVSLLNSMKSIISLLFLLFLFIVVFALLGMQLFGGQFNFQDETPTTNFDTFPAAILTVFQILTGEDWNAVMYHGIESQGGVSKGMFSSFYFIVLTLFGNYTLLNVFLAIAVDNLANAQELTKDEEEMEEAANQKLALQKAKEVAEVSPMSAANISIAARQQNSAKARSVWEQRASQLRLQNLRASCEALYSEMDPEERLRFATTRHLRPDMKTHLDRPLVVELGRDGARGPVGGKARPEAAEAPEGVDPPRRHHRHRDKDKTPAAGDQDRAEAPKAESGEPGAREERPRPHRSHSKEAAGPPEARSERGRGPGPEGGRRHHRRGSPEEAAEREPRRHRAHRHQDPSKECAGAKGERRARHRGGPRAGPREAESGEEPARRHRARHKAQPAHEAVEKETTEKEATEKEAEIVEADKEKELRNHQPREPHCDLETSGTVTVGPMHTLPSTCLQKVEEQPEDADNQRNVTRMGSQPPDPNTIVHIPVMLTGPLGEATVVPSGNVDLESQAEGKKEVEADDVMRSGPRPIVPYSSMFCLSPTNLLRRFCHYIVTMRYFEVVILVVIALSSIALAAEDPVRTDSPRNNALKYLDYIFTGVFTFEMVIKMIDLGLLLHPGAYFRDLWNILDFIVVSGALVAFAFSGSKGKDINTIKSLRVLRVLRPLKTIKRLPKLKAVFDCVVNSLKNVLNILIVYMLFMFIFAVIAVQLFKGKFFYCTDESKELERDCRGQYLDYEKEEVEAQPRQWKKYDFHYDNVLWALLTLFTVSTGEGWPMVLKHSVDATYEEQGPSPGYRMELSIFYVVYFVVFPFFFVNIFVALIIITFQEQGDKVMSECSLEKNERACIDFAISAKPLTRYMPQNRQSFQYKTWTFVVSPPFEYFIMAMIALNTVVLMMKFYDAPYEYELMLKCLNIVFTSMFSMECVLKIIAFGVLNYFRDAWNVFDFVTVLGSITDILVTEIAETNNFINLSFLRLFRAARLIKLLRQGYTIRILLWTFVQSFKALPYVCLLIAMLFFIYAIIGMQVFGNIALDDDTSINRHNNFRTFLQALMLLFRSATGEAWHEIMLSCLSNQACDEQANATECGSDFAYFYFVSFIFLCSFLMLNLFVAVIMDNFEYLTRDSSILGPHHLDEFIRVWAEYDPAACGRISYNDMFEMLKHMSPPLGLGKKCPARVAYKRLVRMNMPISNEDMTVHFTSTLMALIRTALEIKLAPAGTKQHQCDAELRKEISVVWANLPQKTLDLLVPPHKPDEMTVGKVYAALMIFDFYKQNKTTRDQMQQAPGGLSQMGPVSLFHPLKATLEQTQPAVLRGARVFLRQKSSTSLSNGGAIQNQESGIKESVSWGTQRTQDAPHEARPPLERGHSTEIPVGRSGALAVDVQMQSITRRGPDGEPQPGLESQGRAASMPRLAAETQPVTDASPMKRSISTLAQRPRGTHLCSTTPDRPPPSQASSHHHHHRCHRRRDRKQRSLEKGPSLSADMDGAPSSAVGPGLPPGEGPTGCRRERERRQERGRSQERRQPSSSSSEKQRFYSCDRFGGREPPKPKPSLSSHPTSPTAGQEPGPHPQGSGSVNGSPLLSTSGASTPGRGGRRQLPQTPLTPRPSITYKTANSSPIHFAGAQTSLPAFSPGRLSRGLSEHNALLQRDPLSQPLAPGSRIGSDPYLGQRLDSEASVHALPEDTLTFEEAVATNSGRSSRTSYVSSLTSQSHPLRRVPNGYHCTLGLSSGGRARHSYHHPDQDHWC
Sequence (P54284 whole entry partner): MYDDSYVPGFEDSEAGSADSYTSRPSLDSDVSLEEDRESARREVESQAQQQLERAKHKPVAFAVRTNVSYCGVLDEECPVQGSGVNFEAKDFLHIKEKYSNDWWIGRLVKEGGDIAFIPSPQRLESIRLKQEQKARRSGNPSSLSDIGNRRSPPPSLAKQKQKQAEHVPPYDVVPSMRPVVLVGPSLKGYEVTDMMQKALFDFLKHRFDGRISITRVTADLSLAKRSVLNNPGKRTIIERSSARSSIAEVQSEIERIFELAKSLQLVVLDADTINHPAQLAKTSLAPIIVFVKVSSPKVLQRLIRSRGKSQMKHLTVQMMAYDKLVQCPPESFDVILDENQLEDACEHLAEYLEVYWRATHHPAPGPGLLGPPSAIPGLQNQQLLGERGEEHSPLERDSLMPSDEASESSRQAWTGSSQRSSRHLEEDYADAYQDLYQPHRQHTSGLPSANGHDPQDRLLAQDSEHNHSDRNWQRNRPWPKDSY
Sequence (P54289 25-946 partner limits assumed): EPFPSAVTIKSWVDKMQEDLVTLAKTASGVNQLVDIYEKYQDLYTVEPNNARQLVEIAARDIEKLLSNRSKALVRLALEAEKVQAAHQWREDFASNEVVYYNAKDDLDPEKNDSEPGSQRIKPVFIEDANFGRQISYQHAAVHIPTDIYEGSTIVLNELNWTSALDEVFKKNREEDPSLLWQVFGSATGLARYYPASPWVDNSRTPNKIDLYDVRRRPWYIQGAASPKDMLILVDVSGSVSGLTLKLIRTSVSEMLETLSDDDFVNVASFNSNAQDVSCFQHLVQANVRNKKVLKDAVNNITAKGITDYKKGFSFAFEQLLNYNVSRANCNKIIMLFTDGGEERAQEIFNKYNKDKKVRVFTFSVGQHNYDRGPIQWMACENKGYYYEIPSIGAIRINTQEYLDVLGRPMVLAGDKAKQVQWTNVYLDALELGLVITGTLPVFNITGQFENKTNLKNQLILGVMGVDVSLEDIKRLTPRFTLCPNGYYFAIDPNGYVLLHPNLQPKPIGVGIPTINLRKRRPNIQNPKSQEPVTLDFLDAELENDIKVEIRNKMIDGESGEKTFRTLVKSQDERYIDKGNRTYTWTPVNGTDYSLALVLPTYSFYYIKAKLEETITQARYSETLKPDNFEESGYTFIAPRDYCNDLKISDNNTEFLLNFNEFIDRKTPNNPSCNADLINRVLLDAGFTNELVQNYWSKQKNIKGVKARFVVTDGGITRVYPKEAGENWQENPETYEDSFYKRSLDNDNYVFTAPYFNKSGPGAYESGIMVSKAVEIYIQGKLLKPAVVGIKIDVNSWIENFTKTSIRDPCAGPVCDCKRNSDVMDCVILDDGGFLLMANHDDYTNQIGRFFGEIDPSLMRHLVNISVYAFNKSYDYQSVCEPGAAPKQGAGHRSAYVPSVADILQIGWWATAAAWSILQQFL
Sequence (P54289 947-1103 partner limits assumed): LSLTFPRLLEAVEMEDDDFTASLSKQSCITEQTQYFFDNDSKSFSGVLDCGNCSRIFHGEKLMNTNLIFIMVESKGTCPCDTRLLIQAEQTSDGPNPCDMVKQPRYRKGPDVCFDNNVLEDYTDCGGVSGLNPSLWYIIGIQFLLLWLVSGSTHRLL
Provide the reported inhibition at 0.25 µM of each item.
Your reply should be a number followed by the unit it is expressed in.

>>> print(df.to_string())
                                   compound  endpoint_value
0  COc1ccccc1-n1nc2c(c1-c1ccc(Cl)cc1)CC(CCOC(=O)N(C)C)C2 (stereo not shown) [Compound 3]             57%

Please give inhibition at 0.25 µM, item by item, for the list that follows.
1. COc1ccccc1-n1nc2c(c1-c1ccc(Cl)cc1)CC(CNS(C)(=O)=O)C2 (stereo not shown) [Compound 8]
2. CCOc1ccccc1-n1nc2c(c1-c1ccc(Cl)cc1)CC(n1ccnc1)C2 (stereo not shown) [Compound 39]
3. COc1ccccc1-n1nc2c(c1-c1ccc(Cl)cc1)CC(CCOC(=O)N1CCOCC1)C2 (stereo not shown) [Compound 2]

## Output
["-12%", "47%", "58%"]
